Consider the following compounds and their measured t1/2 readings.
# test-protocol: Metabolic stability in human skin S9 cells assessed as half life at 0.5 uM incubated for 180 mins by UPLC-MS/MS analysis
# Type: ADME, subcellular, Zone of skin
# test-parameters: s9, 3 h
Numeric answer only, unit min assumed.

Ask: What value of t1/2 has been reported for the following compound? CCC/N=C1\S/C(=C\c2ccc(OC(C)=O)c(C(F)(F)F)c2)C(=O)N1c1ccccc1C
Reply: 8.3

Ask: Now give it for CCC/N=C1\S/C(=C\c2ccc(OC(C)=O)c(Br)c2)C(=O)N1c1ccccc1C too.
Reply: 8.8

Ask: Would you kindly repeat that for CCC/N=C1\S/C(=C\c2ccc(OC(=O)C(C)C)c(C)c2)C(=O)N1c1ccccc1C ?
Reply: 21

All figures here come from ChEMBL document CHEMBL4699442.
